- target or test system: human CGT (ceramide galactosyltransferase), CHO/CGT lysate (Homo sapiens, UniProt Q16880)
- Construct: Full-length human CGT cDNA was cloned into the BamH1/Xho1 site of pcDNA3.1 (+); expressed in transfected cells; host or cells: Chinese hamster ovary (CHO) cells; lysate prepared with M-PER
- Sequence (Q16880 21-541): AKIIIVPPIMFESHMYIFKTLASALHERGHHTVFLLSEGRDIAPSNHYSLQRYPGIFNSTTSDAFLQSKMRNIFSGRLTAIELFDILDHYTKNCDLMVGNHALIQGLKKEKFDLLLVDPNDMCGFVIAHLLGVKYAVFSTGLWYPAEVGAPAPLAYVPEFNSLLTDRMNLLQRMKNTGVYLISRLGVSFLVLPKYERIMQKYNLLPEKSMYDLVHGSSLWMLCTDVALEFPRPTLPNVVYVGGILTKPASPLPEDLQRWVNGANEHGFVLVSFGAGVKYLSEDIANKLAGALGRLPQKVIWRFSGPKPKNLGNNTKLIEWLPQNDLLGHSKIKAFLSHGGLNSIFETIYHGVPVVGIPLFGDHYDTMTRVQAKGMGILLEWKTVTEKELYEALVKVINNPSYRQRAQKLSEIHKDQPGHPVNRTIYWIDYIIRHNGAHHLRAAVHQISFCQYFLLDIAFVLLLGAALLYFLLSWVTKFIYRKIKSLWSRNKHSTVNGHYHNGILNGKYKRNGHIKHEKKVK
- method summary: CGT enzyme assay, RapidFire/MS/MS readout with 0.01% Tween added (Table 1 ranges with two asterisks **)
- Format: biochemical
- experimental context: CGT enzyme assay, RapidFire/MS/MS method with 0.01% Tween added (range with two asterisks **)
pIC50: −log10 of the molar value. Counter-ions that a name gives are not always drawn.
readout kind: pIC50

COc1cc(C(F)(F)[C@H](NS(=O)(=O)c2ccc(OCC3CCCCC3)cc2)C(=O)N2C3CCC2CC(N)C3)ccc1-c1ccc(Cl)cc1 (stereo partly drawn) :: > 6.00
NC1CC2CCC(C1)N2C(=O)[C@@H](NC(=O)[C@@H](O)c1ccc2cc(OC3CCCC3)ccc2c1)C(F)(F)c1ccc(-c2ccc(Cl)cc2)cc1 (stereo partly drawn) [Compound 136-3, trifluoroacetate] :: 5.00 to 6.00

(Q) Consider the compound COc1cc(C(F)(F)[C@H](NS(=O)(=O)c2ccc3cc(OC4CCCC4)ccc3c2)C(=O)N2CCC(N)CC2)ccc1Br [Compound 143-1, trifluoroacetate] . State its measured pIC50.
(A) 5.00 to 6.00
